Experiment: in vivo
Set-up: species or system Sprague-Dawley rats
Conditions: Sprague-Dawley, rat, Cmax
Result Type: Cmax

> print(dat)
                                   compound  result.type   test.value
1  CCCc1nn(C)c2c(=O)[nH]c(-c3cc(S(=O)(=O)N4CCN(C)CC4)ccc3OCC)nc12 [sildenafil]         Cmax  ~1000 ng/mL
